- Tested on: 327498-153-R-J2-PDC complex spheroid growth, % test/control;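 note: spheroids exposed to compound for 7 days after 3 days of growth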
- Assay Overview: Anticancer human tumor 327498-153-R-J2-PDC patient-derived uterine carcinosarcoma cell line growth inhibition [Asc]; active = viability on the fitted dose curve at most 10% of control; inactive = the rest
- Test Parameters: second compound 0.0949 µM; first compound 0.1 µM
The categories you may choose from are active, inactive

// below: answered molecules
[
  {
    "Molecule": "COc1c(OCCCN2CCOCC2)ccc2c3n(c(=NC(=O)c4cnc(N)nc4)nc12)CCN3 + CCN1C(C(=O)NC23CCC(C(=O)O)(CC2)CC3)C(c2cccc(Cl)c2F)C2(C(=O)Nc3cc(Cl)ccc32)C12CCCCC2",
    "System": "327498-153-R-J2-PDC complex spheroid growth, % test/control",
    "Group Label": "inactive"
  },
  {
    "Molecule": "O=C(c1cc(Cc2n[nH]c(=O)c3ccccc23)ccc1F)N1CCN(C(=O)C2CC2)CC1 + CCN1C(C(=O)NC23CCC(C(=O)O)(CC2)CC3)C(c2cccc(Cl)c2F)C2(C(=O)Nc3cc(Cl)ccc32)C12CCCCC2",
    "System": "327498-153-R-J2-PDC complex spheroid growth, % test/control",
    "Group Label": "inactive"
  },
  {
    "Molecule": "O=C(c1ccc(F)c(F)c1Nc1ccc(I)cc1F)N1CC(O)([C@@H]2CCCCN2)C1 + CCN1C(C(=O)NC23CCC(C(=O)O)(CC2)CC3)C(c2cccc(Cl)c2F)C2(C(=O)Nc3cc(Cl)ccc32)C12CCCCC2",
    "System": "327498-153-R-J2-PDC complex spheroid growth, % test/control",
    "Group Label": "inactive"
  }
]

Task item: Dear all, I need the recorded test outcome for Cn1ncnc1[C@H]1c2n[nH]c(=O)c3cc(F)cc(c23)N[C@@H]1c1ccc(F)cc1 + CCN1C(C(=O)NC23CCC(C(=O)O)(CC2)CC3)C(c2cccc(Cl)c2F)C2(C(=O)Nc3cc(Cl)ccc32)C12CCCCC2 , thank you.
Reply: active

Task item: Dear all, I need the recorded test outcome for C=C(F)C(=O)N1CCN(c2nc(OCC3CCCN3C)nc3c2CCN(c2cccc4cccc(Cl)c24)C3)CC1CC#N (stereo unspecified) + CCN1C(C(=O)NC23CCC(C(=O)O)(CC2)CC3)C(c2cccc(Cl)c2F)C2(C(=O)Nc3cc(Cl)ccc32)C12CCCCC2 , thank you.
Reply: inactive

Task item: Dear all, I need the recorded test outcome for NC1CCC(NC2CC2c2ccccc2)CC1 (stereo unspecified) + CCN1C(C(=O)NC23CCC(C(=O)O)(CC2)CC3)C(c2cccc(Cl)c2F)C2(C(=O)Nc3cc(Cl)ccc32)C12CCCCC2 , thank you.
Reply: inactive

Data origin: PubChem BioAssay AID1963424
